Overview of reported Maximum potential (ΔΨ in - mV) across a group of molecules:
- Tested on: rat liver mitochondria (RLM)
- Procedure Summary: Mitochondrial transmembrane electric potential (safranine fluorescence)
- Format: biochemical
- Measurement Conditions: Succinate, 10 μM

COC1=C(OC)C(=O)C(CCCCCCCCCC[P+](c2ccccc2)(c2ccccc2)c2ccccc2)=C(C)C1=O.CS(=O)(=O)[O-] [MitoQ, reference compound] : 108.9 ± 3.8 - mV
O=C(NCCCCCC[P+](c1ccccc1)(c1ccccc1)c1ccccc1)c1cc(O)c(O)c(O)c1.[Br-] [AntiOxBEN2] : 199.8 ± 16.0 - mV
O=C(CCCCC[P+](c1ccccc1)(c1ccccc1)c1ccccc1)NCCCCCCNC(=O)c1cc(O)c(O)c(O)c1.[Br-] [AntiOxBEN3] : 207.9 ± 19.3 - mV

Consider O=C(NCCCCCC[P+](c1ccccc1)(c1ccccc1)c1ccccc1)c1ccc(O)c(O)c1.[Br-] [AntiOxBEN1] . Its measured Maximum potential (ΔΨ in - mV) is 188.9 ± 14.8 - mV
